# procedure_text: Plasma concentration in Mycobacterium bovis BCG infected tuberculosis mouse model at 5 mg/kg, po after 1 hr
# Format: ADME, organism-based
# Design: dose 5 mg/kg, route oral
parameter_measured: concentration at 1 h

* CO[C@H]1/C=C/O[C@@]2(C)Oc3c(C)c(O)c4c(O)c(c(/C=N/N5CCN(C)CC5)c(O)c4c3C2=O)NC(=O)/C(C)=C\C=C\[C@H](C)[C@H](O)[C@@H](C)[C@@H](O)[C@@H](C)[C@H](OC(C)=O)[C@@H]1C | 4490 ng/mL

----------
# measured_target: CYP1A1/CYP1A2 (Homo sapiens, UniProt P04798)
# Sequence (P04798 whole entry): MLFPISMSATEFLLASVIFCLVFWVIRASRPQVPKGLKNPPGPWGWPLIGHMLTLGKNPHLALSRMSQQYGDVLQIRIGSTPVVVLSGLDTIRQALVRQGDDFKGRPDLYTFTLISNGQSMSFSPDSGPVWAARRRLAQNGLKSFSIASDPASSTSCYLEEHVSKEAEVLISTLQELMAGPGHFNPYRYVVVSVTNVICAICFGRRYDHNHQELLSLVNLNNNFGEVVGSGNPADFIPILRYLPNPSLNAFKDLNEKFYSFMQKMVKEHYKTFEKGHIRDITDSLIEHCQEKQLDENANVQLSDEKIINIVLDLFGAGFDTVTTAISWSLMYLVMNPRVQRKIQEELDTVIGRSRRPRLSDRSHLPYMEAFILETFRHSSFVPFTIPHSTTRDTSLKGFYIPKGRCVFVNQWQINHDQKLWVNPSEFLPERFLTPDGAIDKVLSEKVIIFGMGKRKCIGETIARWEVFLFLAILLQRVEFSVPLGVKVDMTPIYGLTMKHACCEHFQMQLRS
# procedure_text: Effect on CYP1A1/CYP1A2 in human liver assessed as 7-ethoxyresorufin O-deethylation at 100 uM relative to control
# Type: ADME, tissue-based
# condition_notes: probe 7-ethoxyresorufin, read-out: Activity
parameter_measured: activity at 100 µM

• O=c1cc(-c2ccccc2)oc2c1ccc1ccccc12 [ALPHA-NAPHTHOFLAVONE] = 3.8%

----------
# procedure_text: Plasma concentration in Mycobacterium bovis BCG infected tuberculosis mouse model at 5 mg/kg, po after 8 hrs
# Assay type: ADME, organism-based
# Set-up: dose 5 mg/kg, route oral
parameter_measured: concentration at 8 h (µg/mL)

• CO[C@H]1/C=C/O[C@@]2(C)Oc3c(C)c(O)c4c(O)c(c(/C=N/N5CCN(C)CC5)c(O)c4c3C2=O)NC(=O)/C(C)=C\C=C\[C@H](C)[C@H](O)[C@@H](C)[C@@H](O)[C@@H](C)[C@H](OC(C)=O)[C@@H]1C = 3.18

----------
# measured_target: CYP2A6 (Homo sapiens)
# Sequence (P11509 whole entry): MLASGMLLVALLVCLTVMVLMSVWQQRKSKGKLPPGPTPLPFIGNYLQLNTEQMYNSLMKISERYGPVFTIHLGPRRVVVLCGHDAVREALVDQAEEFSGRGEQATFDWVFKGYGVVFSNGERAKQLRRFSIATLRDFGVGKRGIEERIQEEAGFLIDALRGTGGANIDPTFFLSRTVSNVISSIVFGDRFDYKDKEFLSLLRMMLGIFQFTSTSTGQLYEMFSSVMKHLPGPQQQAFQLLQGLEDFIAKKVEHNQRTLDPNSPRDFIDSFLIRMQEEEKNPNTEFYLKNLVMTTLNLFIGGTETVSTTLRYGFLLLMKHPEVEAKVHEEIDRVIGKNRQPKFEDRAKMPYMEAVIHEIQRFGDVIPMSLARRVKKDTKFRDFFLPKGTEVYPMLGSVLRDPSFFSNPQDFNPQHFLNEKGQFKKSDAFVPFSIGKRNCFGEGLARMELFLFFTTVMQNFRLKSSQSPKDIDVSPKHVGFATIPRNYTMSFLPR
# procedure_text: Effect on CYP2A6 in human liver assessed as coumarin 7-hydroxylation at 100 uM relative to control
# Type: ADME, tissue-based
# condition_notes: probe coumarin, read-out: Activity
parameter_measured: activity at 100 µM

* CCN(CC)C(=S)S [DITIOCARB] | 38.2%

----------
# procedure_text: Plasma concentration in Mycobacterium bovis BCG infected tuberculosis mouse model at 5 mg/kg, po after 0.5 hrs
# Format: ADME, organism-based
# Parameters: dose 5 mg/kg, route oral
parameter_measured: concentration at 0.5 h (ng/mL)

* CO[C@H]1/C=C/O[C@@]2(C)Oc3c(C)c(O)c4c(O)c(c(/C=N/N5CCN(C)CC5)c(O)c4c3C2=O)NC(=O)/C(C)=C\C=C\[C@H](C)[C@H](O)[C@@H](C)[C@@H](O)[C@@H](C)[C@H](OC(C)=O)[C@@H]1C [RIFAMPIN] | 3330

----------
# procedure_text: Cmax in human at 850 mg, po
# Assay type: ADME, organism-based
# Design: dose 850 mg, route oral
# condition_notes: in vivo
parameter_measured: Cmax (ng/mL)

* CC[C@@H](CO)NCCN[C@@H](CC)CO | 3700
